tested on: Saccharomyces cerevisiae; test: protein stability index of tFT-peptide fusion (C-terminal peptide) (PSI (0-1 scale)); higher = more stable (slower turnover); conditions: genetic background: wild type; temperature: 30 C;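 further: PSI is a weighted mean of sequencing reads over stability bins, variants kept only with over 10 reads, mCherry proximal and sfGFP distal, peptide attached via GGGS linker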
Returns one of YES or NO; YES when protein stability index is >= 0.7.

Inquiry: Is it the case that PASPTLRPYWDP has protein stability index reaching or exceeding 0.7?
Reply text: NO

Inquiry: Is it the case that GVERLGGVLYVL has protein stability index reaching or exceeding 0.7?
Reply text: NO

Inquiry: Is it the case that MTEFSESEGFIF has protein stability index reaching or exceeding 0.7?
Reply text: YES

Inquiry: Is it the case that SLPCLFPPPLLP has protein stability index reaching or exceeding 0.7?
Reply text: YES

Inquiry: Is it the case that RPGGRLLVWVGG has protein stability index reaching or exceeding 0.7?
Reply text: NO

***
Inquiry: Is it the case that FILLTLVFGCAS has protein stability index reaching or exceeding 0.7?
Reply text: NO

Inquiry: Is it the case that VFVPCIFRQIAG has protein stability index reaching or exceeding 0.7?
Reply text: NO

Inquiry: Is it the case that DCLSVWCSIPGA has protein stability index reaching or exceeding 0.7?
Reply text: YES

Inquiry: Is it the case that APTGGTNVRRPE has protein stability index reaching or exceeding 0.7?
Reply text: YES

Inquiry: Is it the case that DETELTQRTKRV has protein stability index reaching or exceeding 0.7?
Reply text: NO

Inquiry: Is it the case that PDLPHYHPPPPL has protein stability index reaching or exceeding 0.7?
Reply text: YES

Inquiry: Is it the case that KEILATRQKSST has protein stability index reaching or exceeding 0.7?
Reply text: YES

Inquiry: Is it the case that QRGLERVVVGGI has protein stability index reaching or exceeding 0.7?
Reply text: NO
